Entries and their TGI values follow.
Tested on: CAKI-1 renal
RUN DESCRIPTION: NCI tumour cell line growth inhibition, 48 h

See these solved cases before continuing.
>  <MOLECULE>
O=S(c1ccc(O)cc1)c1ccc(O)cc1

>  <TGI>
> 100 µM

$$$$
>  <MOLECULE>
CN(N=O)c1ccc(/C=C/c2ccnc3ccccc23)cc1

>  <TGI>
> 100 µM

$$$$
>  <MOLECULE>
O=C(/C=C/c1ccco1)Nc1ncc(Cc2cc(Cl)ccc2Cl)s1

>  <TGI>
> 100 µM

$$$$
>  <MOLECULE>
Cc1c2ccncc2c(C)c2c1[nH]c1ccc(O)cc12

>  <TGI>
0.0686 µg/mL

$$$$
>  <MOLECULE>
CN(C(=O)C12C3C4C1C1C2C3C41C#N)C(C)(C)C (stereo unspecified)

>  <TGI>
> 100 µM

$$$$

Here's the next entry for you.
Input line: Look up TGI: COc1cc2c(c(O)c1OC)C(O)C1CCC(=O)N1C2c1ccc2c(c1)OCO2 (stereo unspecified)
Output line: > 100 µM

---

Test system: COLO 205 colon
RUN DESCRIPTION: NCI tumour cell line growth inhibition, 48 h
QUANTITY MEASURED: TGI

See these solved cases before continuing.
>  <MOLECULE>
COC(OC)c1cccc2c1C(=O)CCC1(CC2)OCCCCO1

>  <TGI>
> 100 µM

$$$$
>  <MOLECULE>
COc1ccc2cc(CNCCCCCCNC(=O)Nc3cccc4ccccc34)ccc2c1

>  <TGI>
> 100 µM

$$$$
>  <MOLECULE>
O=C(NOCCO)c1ccc2cncn2c1Nc1ccc(I)cc1F

>  <TGI>
0.803 µM

$$$$
>  <MOLECULE>
CCCCCn1sc(=O)n(Cc2ccc(CNC(=O)C(C)c3ccc(CC(C)C)cc3)cc2)c1=O (stereo not given)

>  <TGI>
2.08 µM

$$$$

Here's the next entry for you.
Input line: Look up TGI: Cc1[nH]c2c(C)c3c([nH]c4ccc(Cl)cc43)c(C)c2c(=O)c1C
Output line: 18.8 µM

---

Entries and their log10 of TGI values follow.
Tested on: HCC-2998 colon
RUN DESCRIPTION: NCI tumour cell line growth inhibition, 48 h
On a log10 scale: recorded TGI, unit µM.

See these solved cases before continuing.
>  <COMPOUND>
Clc1ccc(Cc2nc3cc4ccccc4cc3[nH]2)cc1Cl

>  <NUMERIC VALUE>
1.61

$$$$
>  <COMPOUND>
CCCCCCCC(=O)NC(C)(C)C(=O)NCC(=O)NC(CC(C)C)C(=O)NC(C)(C)C(=O)NCC(=O)NCC(=O)NC(CC(C)C)C(=O)NC(C)(C)C(=O)NCC(=O)NC(C(=O)NC(CO)CC(C)C)C(C)CC (stereo not drawn)

>  <NUMERIC VALUE>
0.89

$$$$
>  <COMPOUND>
CC(=O)OC1CCC2(C)C(CCC3C2CCC2(C)C(c4ccc(=O)oc4)C(OC(C)=O)CC32O)C1 (stereo not drawn)

>  <NUMERIC VALUE>
-0.82

$$$$

Input line: Look up log10 of TGI: CC[C@@]1(O)C(=O)OCc2c1cc1n(c2=O)Cc2c-1nc1ccc(N)cc1c2CC[Si](C)(C)C
Output line: -0.99

Input line: Proceed to O=C1c2ccccc2C(=O)c2c1ccc1c3ccccc3n(-c3ccccc3)c21
Output line: 1.86
